Hello, the source for this data is PubChem BioAssay AID1259407, in case you need it.

- Test system: CCRIS mutagenicity, Ames/micronucleus/aberration tests
- experiment_summary: CCRIS mutagenicity studies
- measurement_parameters: Test System: AMES SALMONELLA TYPHIMURIUM; Strain/Indicator: TA100; Metabolic Activation: NONE; Method: STANDARD PLATE
Calls of active or inactive are those of the source. No rule for the calls is given here.
Give your call using only these classes: active, inactive

>  <compound>
C=CCc1ccccc1OCC(O)CNC(C)C (configuration not stated)

>  <assigned_label>
inactive

$$$$
>  <compound>
Cc1cc(C(O)c2ncc([N+](=O)[O-])n2C)c(O)c(C(C)(C)C)c1 (configuration not stated)

>  <assigned_label>
inactive

$$$$
>  <compound>
O=CN(O)c1ccc(Oc2c(Cl)cc(Cl)cc2Cl)cc1

>  <assigned_label>
inactive

$$$$
>  <compound>
Clc1cc(Cl)nc(Cl)n1

>  <assigned_label>
inactive

$$$$
>  <compound>
COC1=CC(=O)c2nc(C)c3c([nH]c4ccccc43)c2C1=O

>  <assigned_label>
active

$$$$

Exam item: Recorded test call requested for O=[N+]([O-])c1cc(Cl)ccc1Cl
Marked response: inactive

Exam item: Recorded test call requested for O=c1[nH]c(=O)n([C@H]2C[C@H](O)[C@@H](CO)O2)cc1/C=C/Br
Marked response: inactive

---

- System: CCRIS mutagenicity, Ames/micronucleus/aberration tests
- experiment_summary: CCRIS mutagenicity studies
- measurement_parameters: Test System: AMES SALMONELLA TYPHIMURIUM; Strain/Indicator: TA1537; Metabolic Activation: RAT, LIVER, S-9; Method: STANDARD PLATE
- Source text: The CCRIS database contains chemical records with carcinogenicity, mutagenicity, tumor promotion, and tumor inhibition test results. It was developed by the National Cancer Institute (NCI). Data are derived from studies cited in primary journals, current awareness tools, NCI reports, and other sources. Test results have been reviewed by experts in carcinogenesis and mutagenesis. CCRIS provides historical information from the years 1985 - 2011. It is no longer updated. […]
The source made the active and inactive calls. The rule behind the calls is not given here.
Give your call using only these classes: active, inactive

>  <compound>
Nc1ccccc1

>  <assigned_label>
inactive

$$$$
>  <compound>
Nc1ccc2c(c1)C(=O)c1ccccc1C2=O

>  <assigned_label>
active

$$$$
>  <compound>
CC1(C)COC1=O

>  <assigned_label>
inactive

$$$$

// switching to the query compound
Exam item: Recorded test call requested for CCC1(CC(=O)O)OCCc2c1[nH]c1c(C(C)O)cccc21 (centres undefined)
Marked response: inactive

---

- Tested on: CCRIS mutagenicity, Ames/micronucleus/aberration tests
- experiment_summary: CCRIS mutagenicity studies
- measurement_parameters: Test System: AMES SALMONELLA TYPHIMURIUM; Strain/Indicator: TA1537; Metabolic Activation: RAT, LIVER, S-9, AROCLOR 1254 (30%); Method: PREINCUBATION
Calls of active or inactive are those of the source. How the calls were made is not given here.
measured_quantity: mutagenic call

>  <compound>
Oc1cc(Cl)c(Cl)c(Cl)c1

>  <meas_value>
inactive; negative

$$$$
>  <compound>
FC(F)(F)c1cccc(Cl)c1

>  <meas_value>
inactive; negative

$$$$
>  <compound>
COCCOC(C)=O

>  <meas_value>
inactive; negative

$$$$
>  <compound>
CCCCCCCCc1ccc(Nc2ccc(CCCCCCCC)cc2)cc1

>  <meas_value>
inactive; negative

$$$$
>  <compound>
CC(Cl)Cl

>  <meas_value>
inactive; negative

$$$$
>  <compound>
COC(=O)NC(=S)Nc1ccccc1NC(=S)NC(=O)OC

>  <meas_value>
inactive; negative

$$$$

Below: the item to evaluate.
Just so you know, measured mutagenic call for CCCCCCCCCCCC(=O)O came out at inactive; negative

---

- Tested on: CCRIS mutagenicity, Ames/micronucleus/aberration tests
- experiment_summary: CCRIS mutagenicity studies
- measurement_parameters: Test System: UDS RODENT HEPATOCYTES; Strain/Indicator: THY INCORP (NON-S-PHASE); Metabolic Activation: NONE; Method: AUTORADIOGRAPHY
Calls of active or inactive are those of the source. No rule for the calls is given here.
Give your call using only these classes: active, inactive

>  <sample_smiles>
NC1CCCCC1

>  <measured_target>
CCRIS mutagenicity, Ames/micronucleus/aberration tests

>  <assigned_label>
inactive

$$$$

Exam item: Recorded test call requested for CNc1ccc(Cl)cc1
Marked response: active

Exam item: Recorded test call requested for CNc1ccccc1
Marked response: inactive

Exam item: Recorded test call requested for Nc1cc(N)cc(C(=O)O)c1
Marked response: active

Exam item: Recorded test call requested for COc1ccc(C(=O)/C(Br)=C\C(=O)O)cc1
Marked response: inactive

Exam item: Recorded test call requested for Cc1cc(S(=O)(=O)O)c(N)cc1Cl
Marked response: inactive

---

- Tested on: CCRIS mutagenicity, Ames/micronucleus/aberration tests
- experiment_summary: CCRIS mutagenicity studies
- measurement_parameters: Test System: AMES SALMONELLA TYPHIMURIUM; Strain/Indicator: TA100; Metabolic Activation: S-9; Method: PREINCUBATION
Active and inactive are the calls of the source. No rule for the calls is given here.
Give your call using only these classes: active, inactive

Example results:
>  <molecule>
Fc1cccc2cccnc12

>  <assigned_label>
active

$$$$
>  <molecule>
CNC(=O)c1c(N(C)N=O)ncn1C

>  <assigned_label>
inactive

$$$$
>  <molecule>
C=C1/C(=C\C=C2/CCC[C@]3(C)[C@@H]([C@H](C)/C=C/[C@@H](O)C4CC4)CC[C@@H]23)C[C@@H](O)C[C@@H]1O

>  <assigned_label>
inactive

$$$$
>  <molecule>
CC(C)(c1ccc(O)cc1)c1ccc(O)cc1

>  <assigned_label>
inactive

$$$$
>  <molecule>
Oc1cccc2cccnc12

>  <assigned_label>
active

$$$$
>  <molecule>
CCCCCCCCCc1ccc(O)cc1

>  <assigned_label>
inactive

$$$$
>  <molecule>
CNNCc1ccc(C(=O)NC(C)C)cc1

>  <assigned_label>
inactive

$$$$

Exam item: Recorded test call requested for O=P1(N(CCCl)CCCl)NCCCO1 (stereo not drawn)
Marked response: active

---

- System: CCRIS mutagenicity, Ames/micronucleus/aberration tests
- experiment_summary: CCRIS mutagenicity studies
- measurement_parameters: Test System: AMES SALMONELLA TYPHIMURIUM; Strain/Indicator: TA1535; Metabolic Activation: HAMSTER, LIVER, S-9, AROCLOR 1254 (10%); Method: PREINCUBATION
The source made the active and inactive calls. How the calls were made is not given here.
Give your call using only these classes: true (1) (active), false (0) (inactive)

Example results:
>  <compound>
C=C(C)C(=O)OCCCCCCCCCC

>  <assigned_label>
false (0)

$$$$
>  <compound>
CN(C)C(=S)N(C)C

>  <assigned_label>
false (0)

$$$$
>  <compound>
CCC(C)c1ccccc1O (stereo unspecified)

>  <assigned_label>
false (0)

$$$$
>  <compound>
CCCCOCCCC

>  <assigned_label>
false (0)

$$$$
>  <compound>
Cc1ccc(N)cc1

>  <assigned_label>
false (0)

$$$$
>  <compound>
CC(=O)/C=C/c1ccco1

>  <assigned_label>
false (0)

$$$$

// switching to the query compound
Exam item: Recorded test call requested for CCCCCC
Marked response: false (0)

---

- Test system: CCRIS mutagenicity, Ames/micronucleus/aberration tests
- experiment_summary: CCRIS mutagenicity studies
- measurement_parameters: Test System: AMES SALMONELLA TYPHIMURIUM; Strain/Indicator: TA98; Metabolic Activation: NONE; Method: STANDARD PLATE
The source made the active and inactive calls. No rule for the calls is given here.
Give your call using only these classes: Yes for active, No for inactive

>  <compound>
C=C(C)C(=O)OCCCCCOC(=O)C(=C)C

>  <assigned_label>
No

$$$$
>  <compound>
CCN(CC)C(=O)Nc1ccc(OCC(O)CNC(C)(C)C)c(C(C)=O)c1 (configuration not stated)

>  <assigned_label>
No

$$$$

Exam item: Recorded test call requested for Cc1cc(O)c(C(C)(C)C)cc1Sc1cc(C(C)(C)C)c(O)cc1C
Marked response: No

Exam item: Recorded test call requested for C=CCc1[c-]cccc1.C=CCc1[c-]cccc1.[Pt+2].c1ccc(P(c2ccccc2)c2ccccc2)cc1.c1ccc(P(c2ccccc2)c2ccccc2)cc1
Marked response: No

---

- System: CCRIS mutagenicity, Ames/micronucleus/aberration tests
- experiment_summary: CCRIS mutagenicity studies
- measurement_parameters: Test System: AMES SALMONELLA TYPHIMURIUM; Strain/Indicator: TA100; Metabolic Activation: RAT, LIVER, S-9, AROCLOR; Method: STANDARD PLATE
Activity calls are given as the source filed them. The rule behind the calls is not given here.

>  <molecule>
Cc1ccccc1C

>  <mutagenic call>
inactive; negative

$$$$
>  <molecule>
ClC(Cl)=C(Cl)Cl

>  <mutagenic call>
inactive; negative

$$$$
>  <molecule>
C=O

>  <mutagenic call>
active; positive

$$$$
>  <molecule>
CCC(C)c1ccc(/C=C/c2ccc([N+](=O)[O-])cc2)cc1 (stereo not given)

>  <mutagenic call>
active; positive

$$$$
